target: Epidermal growth factor receptor (Homo sapiens, UniProt P00533); experiment: Inhibition of EGFR autophosphorylation in DiFi cells by ELISA; assay type: functional, cell-based
Sequence (P00533 whole entry): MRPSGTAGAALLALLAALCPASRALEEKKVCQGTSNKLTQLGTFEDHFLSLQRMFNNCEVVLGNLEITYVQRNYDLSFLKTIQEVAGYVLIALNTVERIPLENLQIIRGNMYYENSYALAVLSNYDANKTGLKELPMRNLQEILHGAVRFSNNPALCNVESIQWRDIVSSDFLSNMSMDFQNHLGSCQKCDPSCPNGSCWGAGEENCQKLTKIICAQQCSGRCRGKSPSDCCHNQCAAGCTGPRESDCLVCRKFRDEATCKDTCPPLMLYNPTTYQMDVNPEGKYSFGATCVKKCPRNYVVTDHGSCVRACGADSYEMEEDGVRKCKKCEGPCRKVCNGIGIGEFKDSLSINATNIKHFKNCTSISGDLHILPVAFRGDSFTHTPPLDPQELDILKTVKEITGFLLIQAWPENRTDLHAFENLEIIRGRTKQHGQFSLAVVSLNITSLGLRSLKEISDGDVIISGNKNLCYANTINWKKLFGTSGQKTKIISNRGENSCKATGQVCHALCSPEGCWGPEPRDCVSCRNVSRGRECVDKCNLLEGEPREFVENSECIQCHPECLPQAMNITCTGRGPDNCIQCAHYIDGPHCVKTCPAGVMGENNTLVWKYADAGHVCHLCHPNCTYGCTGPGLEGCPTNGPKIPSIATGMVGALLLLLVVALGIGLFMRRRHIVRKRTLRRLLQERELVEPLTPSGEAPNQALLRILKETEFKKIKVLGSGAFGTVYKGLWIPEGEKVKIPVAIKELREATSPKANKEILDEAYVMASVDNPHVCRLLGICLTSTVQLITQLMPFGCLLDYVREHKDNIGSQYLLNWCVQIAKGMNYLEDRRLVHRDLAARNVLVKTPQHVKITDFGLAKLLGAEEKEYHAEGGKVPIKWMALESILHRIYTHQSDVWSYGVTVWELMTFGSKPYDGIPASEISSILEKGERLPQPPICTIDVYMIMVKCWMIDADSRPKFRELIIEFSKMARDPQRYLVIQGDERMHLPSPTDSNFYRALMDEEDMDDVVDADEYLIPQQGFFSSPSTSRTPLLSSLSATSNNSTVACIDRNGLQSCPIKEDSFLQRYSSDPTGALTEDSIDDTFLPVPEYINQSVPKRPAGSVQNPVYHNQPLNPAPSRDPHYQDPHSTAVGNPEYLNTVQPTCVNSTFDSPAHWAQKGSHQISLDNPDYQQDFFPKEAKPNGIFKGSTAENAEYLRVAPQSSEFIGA
measurement type: IC50 (µM)

Worked set:
{"columns": ["compound", "measurement type", "experimental value"],
 "data": [
  ["COc1cc2c(cc1OC)Oc1ncnc(Nc3cccc(C)c3)c1NC2", "IC50", 4.4],
  ["COc1cc2c(cc1OC)Oc1ncnc(Oc3cccc(Br)c3)c1NC2", "IC50", 1.8],
  ["COc1cc2c(cc1OC)Nc1ncnc(NCc3ccc(F)c(Cl)c3)c1NC2", "IC50", 1.6],
  ["C#Cc1cccc(Nc2ncnc3c2NCc2cc(OC)c(OC)cc2O3)c1", "IC50", 0.9],
  ["COc1cccc(CNc2ncnc3c2NCc2cc(OC)c(OC)cc2N3)c1", "IC50", 11.7],
  ["COc1cc2c(cc1OC)Oc1ncnc(Sc3cccc(Br)c3)c1NC2", "IC50", 1.2],
  ["COc1cc2c(cc1OC)Oc1ncnc(Nc3ccc(F)c(Cl)c3)c1NC2", "IC50", 0.7],
  ["COc1cc2c(cc1OC)Oc1ncnc(Nc3cccc(Br)c3)c1NC2", "IC50", 0.5],
  ["COc1cc2c(cc1OC)Oc1ncnc(Oc3cccc(Br)c3)c1N(C)C2", "IC50", 6.1],
  ["COc1cc2c(cc1OC)Oc1ncnc(Nc3cccc(Cl)c3F)c1NC2", "IC50", 4.6]
]}

[A] COc1cc2c(cc1OC)Oc1ncnc(Nc3ccc4ccccc4c3)c1NC2
[B] COc1cc2c(cc1OC)Nc1ncnc(N[C@H](C)c3ccccc3)c1NC2
Among A and B , which shows a numerically higher IC50 result? Refer to your chosen item by its label in the answer.
A
(A: 2.3 µM, B: 0.5 µM)

[I] COc1cc2c(cc1OC)Oc1ncnc(Nc3ccc(F)cc3)c1NC2
[II] COc1cc2c(cc1OC)Oc1ncnc(Sc3cccc(Cl)c3)c1NC2
[III] COc1cc2c(cc1OC)Nc1ncnc(NCc3ccccc3)c1NC2
[IV] COc1cc2c(cc1OC)Oc1ncnc(Nc3cc(Cl)ccc3F)c1NC2
Task for the reader: rank each entry by its IC50, from the minimum upward. Answer by listing the labels in the requested order.
III, II, IV, I
(III: 0.9 µM, II: 2.4 µM, IV: 3.9 µM, I: 7.6 µM)
